# Read-out: X-box binding protein 1 (XBP1), XBP1 (gene 7494)
# assay-info: LTEA_HepaRG_XBP1: Life Technologies and Expression Analysis (LTEA) Assay for X-box binding protein 1 (XBP1) using HepaRG (AID 2283540)
# reported-conditions: mRNA level, 48 h; actives raise or lower the signal
Active and inactive are the calls of the source. Rule for the calls: active = hit-call score of the fitted dose curve at least 0.9, where 1 is the maximum; inactive = score below 0.9.
Output constraint: value belongs to active, inactive

Take a look at these entries with their results.
CCOCN(C(=O)CCl)c1c(C)cccc1CC; inactive
CC(C)OC(=O)Nc1cccc(Cl)c1; inactive
CCCN(CCC)c1c([N+](=O)[O-])cc(C(F)(F)F)cc1[N+](=O)[O-]; inactive
COP(=O)(OC)OC=C(Cl)Cl; inactive
COc1nn(CSP(=S)(OC)OC)c(=O)s1; inactive
Clc1ccccc1-c1nnc(-c2ccccc2Cl)nn1; inactive
ClC1C(Cl)C(Cl)C(Cl)C(Cl)C1Cl (configuration not stated); inactive
O=C1c2ccccc2C(=O)N1SC(Cl)(Cl)Cl; inactive

Query: GET /call?item= CCc1ccc(C(=O)NN(C(=O)c2cc(C)cc(C)c2)C(C)(C)C)cc1 returns the recorded outcome of this test.
Response: inactive

Query: GET /call?item= CCN(CC)C(=O)SCc1ccc(Cl)cc1 returns the recorded outcome of this test.
Response: inactive

Query: GET /call?item= Oc1ccc(Cl)cc1Cc1ccccc1 returns the recorded outcome of this test.
Response: inactive

Query: GET /call?item= CC1(c2ccc(Oc3ccccc3)cc2)OC(=O)N(Nc2ccccc2)C1=O (configuration not stated) returns the recorded outcome of this test.
Response: inactive

Query: GET /call?item= CCC(C)Nc1c([N+](=O)[O-])cc(C(C)(C)C)cc1[N+](=O)[O-] (configuration not stated) returns the recorded outcome of this test.
Response: active

Query: GET /call?item= CNC(=O)CSP(=S)(OC)OC returns the recorded outcome of this test.
Response: inactive

Query: GET /call?item= O=C(O)COc1ccc(Cl)cc1Cl returns the recorded outcome of this test.
Response: inactive
